# study target: human DR5 (human)
# procedure summary: SPR (BIAcore X100), human DR5 on CM5 chip, IgG injected, 1:1 Langmuir model
In this section, each of the binders is paired with its reported pKd.
# pKd is unitless: minus log10 of the molar concentration; print number only

Problem: Recorded pKd for DA27 (antibody, V domains shown) VH: AVTLDESGGGLQTPGGGLSLVCKGSGFTFSSFNMLWVRQAPGKGLEWVAGIGKSDRYTGYGSAVKGRATISRDDGQSTVRLQLNNLRAEDTGTYYCVKDAGSGCGSGGWTGACIDTWGHGTEVIVSS VL: LTQPSSVSANLGGTVEITCSGGDSYAGSYYYGWYQQKAPGSAPVTVIYNNNNRPSNIPSRFSGSTSGSTATLTITGVQAEDEATYFCGSRDSSYVGIFGAGTTLTVL , please?
Solution: 11.72

Problem: Name the recorded pKd for DA25 (antibody, V domains shown) VH: AVTLDESGGGLQTPGGGLSLVCKGSGFTFSSFNMLWVRQAPGKGLEWVAGIGKSDRYTGYGSAVKGRATISRDDGQSTVYLQMNSLRAEDTGTYYCVKDAGSGCGSGGWTGACIDTWGHGTEVIVSS VL: LTQPSSVSANLGGTVEITCSGGDSYAGSYYYGWYQQKAPGSAPVTVIYNNNNRPSNIPSRFSGSTSGSTATLTITGVQAEDEAVYFCGSRDSSYVGIFGAGTTLTVL .
Solution: 11.79

The reported measurements were obtained from patent US20230133381A1.
